// provenance: patent US7482379B2

system.tested: Clostripain (Hathewaya histolytica, UniProt P09870)
Sequence (P09870 51-526): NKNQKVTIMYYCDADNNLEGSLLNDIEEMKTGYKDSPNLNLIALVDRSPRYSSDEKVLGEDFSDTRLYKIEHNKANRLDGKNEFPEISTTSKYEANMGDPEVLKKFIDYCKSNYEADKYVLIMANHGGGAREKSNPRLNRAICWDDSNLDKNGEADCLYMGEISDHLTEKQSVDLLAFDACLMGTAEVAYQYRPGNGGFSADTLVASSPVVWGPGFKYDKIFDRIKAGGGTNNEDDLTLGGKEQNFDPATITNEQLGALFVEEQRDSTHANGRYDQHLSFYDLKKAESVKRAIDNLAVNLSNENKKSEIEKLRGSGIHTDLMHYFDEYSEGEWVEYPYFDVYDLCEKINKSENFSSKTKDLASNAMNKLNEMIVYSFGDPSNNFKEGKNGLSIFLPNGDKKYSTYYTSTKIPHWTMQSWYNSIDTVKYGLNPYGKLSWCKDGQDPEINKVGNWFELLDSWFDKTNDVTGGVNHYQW
applied.conditions: Table 3; Z-Phe-Arg-AMC substrate; pH 7.6
assay.endpoint: k2 Clostripain

Can you look up the measured k2 Clostripain of CC(C)CC(NC(=O)CCc1ccccc1)C(=O)NN(CCCNC(=N)N)C(=O)C=CC(=O)NCc1ccccc1 (centres unmarked) for me?
287,000 M^−1s^−1

Can you look up the measured k2 Clostripain of CC(C)CC(NC(=O)CCc1ccccc1)C(=O)NN(CCCCN)C(=O)C=CC(=O)N(Cc1ccccc1)Cc1ccccc1 (centres unmarked) for me?
20,000 M^−1s^−1

Can you look up the measured k2 Clostripain of `CC(C)C[C@H](NC(=O)CCc1ccccc1)C(=O)NN(CCCCN)C(=O)C=CC(=O)N(Cc1ccccc1)Cc1ccc(F)cc1` for me?
13,800 M^−1s^−1

Can you look up the measured k2 Clostripain of `CC(C)C[C@H](NC(=O)CCc1ccccc1)C(=O)NN(CCCCN)C(=O)C=CC(=O)NCc1ccccc1` for me?
1,050 M^−1s^−1

Can you look up the measured k2 Clostripain of CC(C)CC(NC(=O)CCc1ccccc1)C(=O)NN(CCCCN)C(=O)C=CC(=O)OCc1ccccc1 (centres unmarked) for me?
20,500 M^−1s^−1

Can you look up the measured k2 Clostripain of `CCOC(=O)C=CC(=O)N(CCCCN)NC(=O)[C@H](CC(C)C)NC(=O)CCc1ccccc1` for me?
40,750 M^−1s^−1

Can you look up the measured k2 Clostripain of CC(C)CC(NC(=O)CCc1ccccc1)C(=O)NN(CCCCN)C(=O)C=CC(=O)N(Cc1cccc2ccccc12)Cc1cccc2ccccc12 (centres unmarked) for me?
2,250 M^−1s^−1

Can you look up the measured k2 Clostripain of CC(C)CC(NC(=O)CCc1ccccc1)C(=O)NN(CCCCN)C(=O)C=CC(=O)N(C)Cc1ccccc1 (centres unmarked) for me?
6,000 M^−1s^−1

Can you look up the measured k2 Clostripain of `CC(C)C[C@H](NC(=O)CCc1ccccc1)C(=O)NN(CCCN)C(=O)C=CC(=O)N(Cc1ccccc1)Cc1ccccc1` for me?
541 M⁻¹ s⁻¹

Can you look up the measured k2 Clostripain of CC(C)CC(NC(=O)CCc1ccccc1)C(=O)NN(CCCCN)C(=O)C=CC(=O)N(C)Cc1cccc2ccccc12 (centres unmarked) for me?
639 M⁻¹ s⁻¹

Can you look up the measured k2 Clostripain of `CCOC(=O)C=CC(=O)N(CCCN)NC(=O)[C@H](CC(C)C)NC(=O)CCc1ccccc1` for me?
788 M⁻¹ s⁻¹

Can you look up the measured k2 Clostripain of CC(C)CC(NC(=O)CCc1ccccc1)C(=O)NN(CCCNC(=N)N)C(=O)C=CC(=O)N(Cc1ccccc1)Cc1ccccc1 (centres unmarked) for me?
474,000 M^−1s^−1

Can you look up the measured k2 Clostripain of `CC(C)C[C@H](NC(=O)CCc1ccccc1)C(=O)NN(CCCCN)C(=O)C=CC(=O)N(Cc1ccccc1)Cc1ccc2ccccc2c1` for me?
17,500 M^−1s^−1

Can you look up the measured k2 Clostripain of CCOC(=O)C=CC(=O)N(CCCNC(=N)N)NC(=O)C(CC(C)C)NC(=O)CCc1ccccc1 (centres unmarked) for me?
69,600 M^−1s^−1
